The measured values listed here are drawn from paper PMC6001238.

- Tested on: L1210, CEM and HeLa cell lines
- assay.details: Cytostatic activity, average or summary over L1210, CEM and HeLa
- Assay type: cell-based
- assay.conditions: average of L1210, CEM and HeLa; read-out: Toxicity (IC50) Average
Attribute: pIC50
The scale used: pIC50 is minus the common logarithm of the concentration in molar units.

compound	measured.result
CNC(CC(C)C)C(=O)NC1C(=O)NC(CC(N)=O)C(=O)NC2C(=O)NC3C(=O)NC(C(=O)NC(C(=O)NCCCNC(=O)c4cc5ccccc5o4)c4cc(O)cc(O)c4-c4cc3ccc4O)C(O)c3ccc(c(Cl)c3)Oc3cc2cc(c3OC2OC(CO)C(O)C(O)C2OC2CC(C)(N)C(O)C(C)O2)Oc2ccc(cc2Cl)C1O (stereo not drawn)	3.70
CNC(CC(C)C)C(=O)NC1C(=O)NC(CC(N)=O)C(=O)NC2C(=O)NC3C(=O)NC(C(=O)NC(C(=O)NCC(=O)Nc4cccc(OC)c4)c4cc(O)cc(O)c4-c4cc3ccc4O)C(O)c3ccc(c(Cl)c3)Oc3cc2cc(c3OC2OC(CO)C(O)C(O)C2OC2CC(C)(N)C(O)C(C)O2)Oc2ccc(cc2Cl)C1O (stereo not drawn)	3.64
CN[C@H](CC(C)C)C(=O)N[C@H]1C(=O)N[C@@H](CC(N)=O)C(=O)N[C@H]2C(=O)N[C@H]3C(=O)N[C@H](C(=O)N[C@H](C(=O)NCC(=O)Nc4ccc(NS(=O)(=O)c5ccccc5)cc4)c4cc(O)cc(O)c4-c4cc3ccc4O)[C@H](O)c3ccc(c(Cl)c3)Oc3cc2cc(c3O[C@@H]2O[C@H](CO)[C@@H](O)[C@H](O)[C@H]2O[C@H]2C[C@](C)(N)[C@H](O)[C@H](C)O2)Oc2ccc(cc2Cl)[C@H]1O	3.74
CNC(CC(C)C)C(=O)NC1C(=O)NC(CC(N)=O)C(=O)NC2C(=O)NC3C(=O)NC(C(=O)NC(C(=O)NCC(=O)Nc4ccc(-c5ccc(C(C)=O)cc5)cc4)c4cc(O)cc(O)c4-c4cc3ccc4O)C(O)c3ccc(c(Cl)c3)Oc3cc2cc(c3OC2OC(CO)C(O)C(O)C2OC2CC(C)(N)C(O)C(C)O2)Oc2ccc(cc2Cl)C1O (stereo not drawn)	4.36
CCCCCCCC[N+](C)(C)CCCNC(=O)c1ccc(NC(=O)CNC(=O)C2NC(=O)C3NC(=O)C(NC(=O)C4NC(=O)C(CC(N)=O)NC(=O)C(NC(=O)C(CC(C)C)NC)C(O)c5ccc(c(Cl)c5)Oc5cc4cc(c5OC4OC(CO)C(O)C(O)C4OC4CC(C)(N)C(O)C(C)O4)Oc4ccc(cc4Cl)C3O)c3ccc(O)c(c3)-c3c(O)cc(O)cc32)cc1 (stereo not drawn)	3.75
CNC(CC(C)C)C(=O)NC1C(=O)NC(CC(N)=O)C(=O)NC2C(=O)NC3C(=O)NC(C(=O)NC(C(=O)NCC(=O)Nc4ccc(C=Cc5ccc(N)cc5)cc4)c4cc(O)cc(O)c4-c4cc3ccc4O)C(O)c3ccc(c(Cl)c3)Oc3cc2cc(c3OC2OC(CO)C(O)C(O)C2OC2CC(C)(N)C(O)C(C)O2)Oc2ccc(cc2Cl)C1O (stereo not drawn)	3.72

Input line: Please give the measured pIC50 for this compound: CNC(CC(C)C)C(=O)NC1C(=O)NC(CC(N)=O)C(=O)NC2C(=O)NC3C(=O)NC(C(=O)NC(C(=O)NCCCNC(=O)c4cc5ccccc5[nH]4)c4cc(O)cc(O)c4-c4cc3ccc4O)C(O)c3ccc(c(Cl)c3)Oc3cc2cc(c3OC2OC(CO)C(O)C(O)C2OC2CC(C)(N)C(O)C(C)O2)Oc2ccc(cc2Cl)C1O (stereo not drawn)
Output line: 3.78

Input line: Query (compound): CCCCCc1ccc(C(=O)NCCCNC(=O)C2NC(=O)C3NC(=O)C(NC(=O)C4NC(=O)C(CC(N)=O)NC(=O)C(NC(=O)C(CC(C)C)NC)C(O)c5ccc(c(Cl)c5)Oc5cc4cc(c5OC4OC(CO)C(O)C(O)C4OC4CC(C)(N)C(O)C(C)O4)Oc4ccc(cc4Cl)C3O)c3ccc(O)c(c3)-c3c(O)cc(O)cc32)cc1 (stereo not drawn) ; field requested: pIC50
Output line: 4.18

Input line: Can you share its pIC50? I mean this compound: CNC(CC(C)C)C(=O)NC1C(=O)NC(CC(N)=O)C(=O)NC2C(=O)NC3C(=O)NC(C(=O)NC(C(=O)NCCCNC(=O)c4cc5ccccc5s4)c4cc(O)cc(O)c4-c4cc3ccc4O)C(O)c3ccc(c(Cl)c3)Oc3cc2cc(c3OC2OC(CO)C(O)C(O)C2OC2CC(C)(N)C(O)C(C)O2)Oc2ccc(cc2Cl)C1O (stereo not drawn)
Output line: 3.74

Input line: Which measured pIC50 value corresponds to CN[C@H](CC(C)C)C(=O)N[C@H]1C(=O)N[C@@H](CC(N)=O)C(=O)N[C@H]2C(=O)N[C@H]3C(=O)N[C@H](C(=O)N[C@H](C(=O)NCCNC(=O)/C=C/c4ccc(C)cc4)c4cc(O)cc(O)c4-c4cc3ccc4O)[C@H](O)c3ccc(c(Cl)c3)Oc3cc2cc(c3O[C@@H]2O[C@H](CO)[C@@H](O)[C@H](O)[C@H]2O[C@H]2C[C@](C)(N)[C@H](O)[C@H](C)O2)Oc2ccc(cc2Cl)[C@H]1O ?
Output line: 3.77

Input line: Value lookup for pIC50; key = CN[C@H](CC(C)C)C(=O)N[C@H]1C(=O)N[C@@H](CC(N)=O)C(=O)N[C@H]2C(=O)N[C@H]3C(=O)N[C@H](C(=O)N[C@H](C(=O)NCC(=O)Nc4c(C)cc(C)cc4C)c4cc(O)cc(O)c4-c4cc3ccc4O)[C@H](O)c3ccc(c(Cl)c3)Oc3cc2cc(c3O[C@@H]2O[C@H](CO)[C@@H](O)[C@H](O)[C@H]2O[C@H]2C[C@](C)(N)[C@H](O)[C@H](C)O2)Oc2ccc(cc2Cl)[C@H]1O
Output line: 3.72
